# assay.target: α4β1 receptors (Mus musculus, UniProt P50571+Q9D6F4)
# Construct: expressed in transfected cells; host or cells: Xenopus laevis oocytes, cDNA-injected (pRK5 vector), ratio 1:1
# Sequence (Q9D6F4 36-552): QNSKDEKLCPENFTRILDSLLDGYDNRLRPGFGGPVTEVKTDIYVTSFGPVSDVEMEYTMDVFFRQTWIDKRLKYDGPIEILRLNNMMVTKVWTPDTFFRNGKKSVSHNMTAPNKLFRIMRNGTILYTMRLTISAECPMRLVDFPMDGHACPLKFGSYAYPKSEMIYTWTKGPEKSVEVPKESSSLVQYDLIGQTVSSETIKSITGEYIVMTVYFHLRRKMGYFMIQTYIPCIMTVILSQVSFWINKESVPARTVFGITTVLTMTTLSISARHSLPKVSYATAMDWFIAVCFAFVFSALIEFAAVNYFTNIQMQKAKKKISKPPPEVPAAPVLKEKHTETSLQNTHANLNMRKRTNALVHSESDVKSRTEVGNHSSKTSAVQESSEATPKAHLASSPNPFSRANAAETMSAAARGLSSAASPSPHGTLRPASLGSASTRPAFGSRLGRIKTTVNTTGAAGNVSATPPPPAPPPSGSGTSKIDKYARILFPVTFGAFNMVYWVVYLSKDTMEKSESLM
# Sequence (P50571 26-474): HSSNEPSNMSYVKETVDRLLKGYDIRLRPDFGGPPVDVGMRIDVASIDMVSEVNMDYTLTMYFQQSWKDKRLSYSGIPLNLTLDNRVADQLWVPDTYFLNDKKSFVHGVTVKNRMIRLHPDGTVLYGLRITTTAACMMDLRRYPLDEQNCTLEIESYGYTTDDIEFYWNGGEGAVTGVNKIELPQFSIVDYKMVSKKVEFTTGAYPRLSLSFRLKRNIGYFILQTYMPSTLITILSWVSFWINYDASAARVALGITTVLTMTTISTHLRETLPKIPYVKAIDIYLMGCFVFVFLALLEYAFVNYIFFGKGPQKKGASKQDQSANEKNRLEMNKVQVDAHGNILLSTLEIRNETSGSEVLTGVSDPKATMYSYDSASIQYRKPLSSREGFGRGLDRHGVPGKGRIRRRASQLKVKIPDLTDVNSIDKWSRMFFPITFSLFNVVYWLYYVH
# protocol.description: Two-electrode voltage-clamp of murine α4β1 GABAA receptors expressed in Xenopus oocytes
# Type: cell-based
# assay.conditions: GABA-activated peak currents, oocytes clamped at -60 mV; read-out: EC50
measured.attribute: EC50 (nM)

1) NCCCC(=O)O
2700

###

# assay.target: α4β1 receptors (Mus musculus, UniProt P50571+Q9D6F4)
# Construct: expressed in transfected cells; host or cells: Xenopus laevis oocytes, cDNA-injected (pRK5 vector), ratio 1:1
# protocol.description: Two-electrode voltage-clamp of murine α4β1 GABAA receptors expressed in Xenopus oocytes
# Type: cell-based
# assay.conditions: GABA EC75 (8 μM); lower potency component of two-site fit; read-out: IC50B
measured.attribute: IC50 (µM)

1) [Cl-].[Cl-].[Zn+2]
0.056

Numbers sourced from paper PMC4359537.
